Consider the following compounds and their measured EC50 readings.
# systemUnderTest: human somatostatin receptor subtype 5 (Homo sapiens, UniProt P35346)
# Sequence (P35346 whole entry): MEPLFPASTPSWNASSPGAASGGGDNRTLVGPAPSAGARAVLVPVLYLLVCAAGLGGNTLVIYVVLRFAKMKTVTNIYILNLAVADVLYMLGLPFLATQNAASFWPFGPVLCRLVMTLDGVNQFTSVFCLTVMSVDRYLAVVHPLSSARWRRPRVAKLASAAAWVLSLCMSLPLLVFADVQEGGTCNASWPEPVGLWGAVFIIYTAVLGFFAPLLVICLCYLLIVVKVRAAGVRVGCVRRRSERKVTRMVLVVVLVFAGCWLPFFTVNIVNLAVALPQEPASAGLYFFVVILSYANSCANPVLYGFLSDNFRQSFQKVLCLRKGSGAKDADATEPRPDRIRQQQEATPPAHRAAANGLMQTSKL
# protocolNotes: cAMP assay for SST5R (inhibition of cAMP via human SST5 receptor)
# testContext: read-out: SST5 potency; inhibition of cAMP via human SST5 receptor; Table B

Examples with their reported EC50 follow.
CC1(N)CCN(c2c(-c3ccc(F)c(C#N)c3)cncc2-c2nc3cccc(C#N)c3[nH]2)C1 (stereo not drawn) :: < 10 nM
CC1(N)CCN(c2c(-c3cc(F)cc(C#N)c3)cncc2-c2nc3cccc(F)c3[nH]2)C1 (stereo not drawn) :: < 10 nM
Cc1cccc2nc(-c3cncc(-c4ccnc(C#N)c4)c3N3CC[C@H](N)C3)[nH]c12 :: < 10 nM

Item: N#Cc1cccc(-c2cncc(-c3nc4cccc(F)c4[nH]3)c2N2CC[C@H](N)C2)c1 | EC50: < 10 nM

Item: Cc1cncc2nc(-c3cncc(-c4ccc(F)c(C#N)c4)c3N3CCC(C)(N)C3)[nH]c12 (stereo not drawn) | EC50: < 10 nM

Item: Cc1cc(F)cc(-c2cncc(-c3nc4cccc(C)c4[nH]3)c2N2CC[C@H](N)C2)c1 | EC50: < 10 nM

Item: N#Cc1cc(F)cc(-c2cncc(-c3nc4ccccc4[nH]3)c2N2CC[C@H](N)C2)c1 | EC50: < 10 nM

Item: CCn1c(-c2cncc(-c3ccc(F)c(C#N)c3)c2N2CC[C@H](N)C2)nc2c(F)cccc21 | EC50: < 10 nM

Item: Cc1ccnc2nc(-c3cncc(-c4cc(F)cc(C#N)c4)c3N3CC[C@](C)(N)C3)[nH]c12 | EC50: < 10 nM

Item: Cc1cc(F)cc(-c2cncc(-c3nc4c(F)ccc(F)c4[nH]3)c2N2CC(CN)C2)c1 | EC50: < 10 nM

###

# systemUnderTest: human somatostatin receptor subtype 5 (Homo sapiens, UniProt P35346)
# protocolNotes: cAMP assay for SST5R (inhibition of cAMP via human SST5 receptor)
# testContext: SST5 over SST2, class symbols
reportedMetric: Fold selectivity for SST5 vs SST2

N#Cc1cc(F)cc(-c2cncc(-c3nc4c(F)ccc(F)c4[nH]3)c2N2CC[C@H](N)C2)c1 [Compound 2-38] :: +++ (+++=≥500)
Cn1c(-c2cncc(-c3cc(F)cc(C#N)c3)c2N2CC[C@H](N)C2)nc2c(Cl)cccc21 [Compound 2-116] :: +++ (+++=≥500)
Cc1cccc(-c2cncc(-c3nc4cccc(C)c4[nH]3)c2N2CC[C@H](N)C2)c1 [Compound 2-146] :: ++ (++=100 to 499)
CC1(N)CCN(c2c(-c3ccnc(C#N)c3)cncc2-c2nc3cccc(Cl)c3[nH]2)C1 (stereo not shown) [Compound 2-157] :: +++ (+++=≥500)
Cc1ccnc2nc(-c3cncc(-c4cc(F)cc(C#N)c4)c3N3CC[C@](C)(N)C3)[nH]c12 [Compound 2-202] :: +++ (+++=≥500)

Next up:
Item: Cc1cccc2nc(-c3cncc(-c4cc(F)cc(Cl)c4)c3N3CC[C@H](N)C3)[nH]c12 [Compound 2-183] | Fold selectivity for SST5 vs SST2: ++ (++=100 to 499)

###

# protocolNotes: Liver microsomal stability assay
# Type: in vitro ADME
# testContext: both sexes, human, pooled human liver microsomes; read-out: HLM Stability t½
reportedMetric: half-life at 1 μM (h)

Cc1ccnc2nc(-c3cncc(-c4ccc(F)c(F)c4)c3N3CC[C@](C)(N)C3)[nH]c12 :: 2.32
Cc1cccc2nc(-c3cncc(-c4cc(F)cc(C(F)(F)F)c4)c3N3CC[C@H](N)C3)[nH]c12 :: 1.28

A. Cc1cccc2nc(-c3cncc(-c4cc(F)cc(Cl)c4)c3N3CC[C@H](N)C3)[nH]c12
B. Cc1cccc2nc(-c3cncc(-c4cc(F)cc(F)c4)c3N3CC[C@H](N)C3)[nH]c12
C. COc1cc(-c2cncc(-c3nc4c(F)cccc4[nH]3)c2N2CC[C@](C)(N)C2)ccn1
D. C[C@]1(N)CCN(c2c(-c3ccnc(C(F)(F)F)c3)cncc2-c2nc3c(F)cccc3[nH]2)C1
Order by half-life at 1 μM, ascending. Would you mind listing the labels in the order asked for? C, A, B, D
(C: 0.683 h, A: 1.28 h, B: 2.88 h, D: 5.78 h)

###

# systemUnderTest: Cytochrome P450 (CYP) 2D6 enzyme (Homo sapiens)
# Construct: using pooled male and female human liver microsomes; from tissue; host or cells: pooled male and female human liver microsomes
# Sequence (P10635 whole entry): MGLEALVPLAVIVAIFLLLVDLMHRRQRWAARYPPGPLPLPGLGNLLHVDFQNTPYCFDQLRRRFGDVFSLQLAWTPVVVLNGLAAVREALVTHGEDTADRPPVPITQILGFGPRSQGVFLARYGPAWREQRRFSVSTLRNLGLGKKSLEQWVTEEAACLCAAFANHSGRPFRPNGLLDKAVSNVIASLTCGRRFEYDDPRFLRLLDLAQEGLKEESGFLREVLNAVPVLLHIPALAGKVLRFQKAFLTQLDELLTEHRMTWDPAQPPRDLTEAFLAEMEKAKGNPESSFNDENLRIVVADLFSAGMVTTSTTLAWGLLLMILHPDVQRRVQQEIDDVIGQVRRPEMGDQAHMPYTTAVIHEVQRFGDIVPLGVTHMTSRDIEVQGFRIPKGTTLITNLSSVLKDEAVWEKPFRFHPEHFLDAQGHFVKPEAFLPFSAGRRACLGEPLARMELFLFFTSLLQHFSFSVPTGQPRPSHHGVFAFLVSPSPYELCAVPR
# protocolNotes: Cytochrome P450 (CYP) 2D6 enzyme time dependent inhibition (TDI) assay
# Assay type: in vitro ADME
# testContext: t = 30 min pre-incubation, human liver microsomes; read-out: CYP2D6 inhibition, IC50 (μM) t = 30 min
reportedMetric: IC50 (µM)

I. Cc1ccnc2nc(-c3cncc(-c4ccc(F)c(Cl)c4)c3N3CC[C@](C)(N)C3)[nH]c12 [Compound 2-192]
II. C[C@]1(N)CCN(c2c(-c3ccnc(C(F)(F)F)c3)cncc2-c2nc3c(F)cccc3[nH]2)C1 [Compound 2-186]
Higher IC50 between I and II ? # respond with the chosen item's label I

###

# systemUnderTest: UniProt P35346
# protocolNotes: cAMP assay for SST5R (inhibition of cAMP via human SST5 receptor)
# testContext: SST5 over SST2, class symbols
reportedMetric: Fold selectivity for SST5 vs SST2

Examples with their reported Fold selectivity for SST5 vs SST2 follow.
CC1(N)CCN(c2c(-c3ccnc(C#N)c3)cncc2-c2nc3cccc(F)c3[nH]2)C1 (stereo not shown) :: +++ (+++=≥500)
N#Cc1ccc(-c2cncc(-c3nc4cccc(F)c4[nH]3)c2N2CC[C@H](N)C2)s1 :: ++ (++=100 to 499)
CC1(N)CCN(c2c(-c3cc(F)cc(C(N)=O)c3)cncc2-c2nc3cccc(F)c3[nH]2)C1 (stereo not shown) :: +++ (+++=≥500)
CC1(N)CCN(c2c(-c3cccc(C(N)=O)c3)cncc2-c2nc3c(F)cccc3[nH]2)C1 (stereo not shown) :: +++ (+++=≥500)

Item: Cc1cc(F)cc(-c2cncc(-c3nc4cccc(C)c4[nH]3)c2N2CC[C@H](N)C2)c1 | Fold selectivity for SST5 vs SST2: ++ (++=100 to 499)

Item: Cc1cccc2nc(-c3cncc(-c4ccnc(C#N)c4)c3N3CCC(C)(N)C3)[nH]c12 (stereo not shown) | Fold selectivity for SST5 vs SST2: +++ (+++=≥500)

Item: Cc1cc(F)cc2nc(-c3cncc(-c4cc(F)cc(C#N)c4)c3N3CC[C@H](N)C3)[nH]c12 | Fold selectivity for SST5 vs SST2: ++ (++=100 to 499)

###

# systemUnderTest: human somatostatin receptor subtype 5 (Homo sapiens, UniProt P35346)
# protocolNotes: cAMP assay for SST5R (inhibition of cAMP via human SST5 receptor)
pEC50: −log10 of the molar value.
reportedMetric: pEC50

Examples with their reported pEC50 follow.
COc1ccc(-c2cncc(-c3nc4c(C#N)ccnc4[nH]3)c2N2CC[C@](C)(N)C2)cc1C#N :: 7.00 to 8.00
Cc1cccc2nc(-c3cncc(-c4ccc(F)c(C#N)c4)c3N3CC[C@H](N)C3)n(C)c12 :: > 8.00
NC(=O)c1cccc(-c2cncc(-c3nc4c(F)ccc(F)c4[nH]3)c2N2CC[C@H](N)C2)c1 :: 7.00 to 8.00
Cc1cc(F)cc(-c2cncc(-c3nc4cccc(F)c4n3C)c2N2CC(CN)C2)c1 :: 7.00 to 8.00
Cc1cc(F)cc(-c2cncc(-c3nc4cccc(Cl)c4[nH]3)c2N2CCC(N)CC2)c1 :: 6.00 to 7.00
CNC(=O)c1cccc(-c2cncc(-c3nc4cccc(F)c4[nH]3)c2N2CCC(C)(N)C2)c1 (stereo not drawn) :: 7.00 to 8.00
N[C@H]1CCN(c2c(-c3cc(O)cc(F)c3)cncc2-c2nc3cccc(F)c3[nH]2)C1 :: 7.00 to 8.00
N#Cc1cc(F)cc(-c2cncc(-c3nc4c(F)ccc(F)c4[nH]3)c2N2CC[C@H](N)C2)c1 :: > 8.00

Next up:
Item: NCC1CN(c2c(-c3ccc4ccccc4c3)cncc2-c2nc3cc(F)cc(F)c3[nH]2)C1 | pEC50: 6.00 to 7.00

###

# systemUnderTest: human somatostatin receptor subtype 5 (Homo sapiens, UniProt P35346)
# protocolNotes: cAMP assay for SST5R (inhibition of cAMP via human SST5 receptor)
# testContext: SST5 over SST2, class symbols
reportedMetric: Fold selectivity for SST5 vs SST2

Examples with their reported Fold selectivity for SST5 vs SST2 follow.
C[C@]1(N)CCN(c2c(-c3cccc(C#N)c3)cncc2-c2nc3c(F)cccc3[nH]2)C1 :: +++ (+++=≥500)
Cc1cc(F)cc(-c2cncc(-c3nc4cccc(Cl)c4[nH]3)c2N2CC[C@H](N)C2)c1 :: ++ (++=100 to 499)
Cc1ccc(F)c2nc(-c3cncc(-c4cccc(C#N)c4)c3N3CC[C@H](N)C3)[nH]c12 :: +++ (+++=≥500)
Cc1ccnc2nc(-c3cncc(-c4ccc(F)c(C#N)c4)c3N3CCC(C)(N)C3)[nH]c12 (stereo not drawn) :: ++ (++=100 to 499)

Item: Cc1c(F)ccc2nc(-c3cncc(-c4cc(F)cc(C#N)c4)c3N3CC[C@H](N)C3)[nH]c12 | Fold selectivity for SST5 vs SST2: ++ (++=100 to 499)

Item: CC1(N)CCN(c2c(-c3ccc4c(c3)OCC4)cncc2-c2nc3cccc(F)c3[nH]2)C1 (stereo not drawn) | Fold selectivity for SST5 vs SST2: ++ (++=100 to 499)

Item: CCC(N)C1CN(c2c(-c3cc(C)cc(F)c3)cncc2-c2nc3cc(F)cc(F)c3[nH]2)C1 (stereo not drawn) | Fold selectivity for SST5 vs SST2: +++ (+++=≥500)

Item: NCC1CN(c2c(-c3cc(F)cc(Cl)c3)cncc2-c2nc3cc(F)cc(F)c3[nH]2)C1 | Fold selectivity for SST5 vs SST2: +++ (+++=≥500)

Item: Cc1cc(F)cc(-c2cncc(-c3nc4cccc(Cl)c4[nH]3)c2N2CC(CN)C2)c1 | Fold selectivity for SST5 vs SST2: ++ (++=100 to 499)
